ASSAY REMARKS: OHB reductase activity, NADH absorption at 340 nm
Format: biochemical
RUN CONDITIONS: when not saturated, activity estimated at 20 mM substrate

| MOLECULE | Max. specific activity, OHB |
| --- | --- |
| Ec-Mdh: (L)-malate dehydrogenase from Escherichia coli, SEQ ID NO: 2 (protein, listed as Escherichia coli) MKVAVLGAAGGIGQALALLLKTQLPSGSELSLYDIAPVTPGVAVDLSHIPTAVKIKGFSGEDATPALEGADVVLISAGVARKPGMDRSDLFNVNAGIVKNLVQQVAKTCPKACIGIITNPVNTTVAIAAEVLKKAGVYDKNKLFGVTTLDIIRSNTFVAELKGKQPGEVEVPVIGGHSGVTILPLLSQVPGVSFTEQEVADLTKRIQNAGTEVVEAKAGGGSATLSMGQAAARFGLSLVRALQGEQGVVECAYVEGDGQYARFFSQPLLLGKNGVEERKSIGTLSAFEQNALEGMLDTLKKDIALGEEFVNK | 0.01 µmol/mg/min |

Every entry's value here was drawn from patent US11505811B2.
